Cited source for all entries: patent US20230078764A1

Assay system: human SCD5 (Homo sapiens, UniProt Q86SK9)
Construct: expressed in transfected cells; host or cells: yeast strain with OLE1 deleted, plasmid-borne human SCD5 (selected in SD-Ura)
Measurement notes: Growth inhibition of yeast strain expressing human SCD5 as sole desaturase (OLE1 deleted), OD600 readout
Format: cell-based
Applied conditions: yeast strain expressing human SCD5 as sole desaturase; growth (OD600) after 40 h at 30° C.; read-out: SCD5 IC50
Observed property: IC50 (nM)

I: N#Cc1ccc(C(=O)Nc2ccc(Cc3cc(F)cc(F)c3)cn2)cn1 [Compound 478]
II: N#Cc1cncc(C(=O)Nc2ccc(Cc3cccc(F)c3)cn2)c1 [Compound 579]
III: Cn1cc(NC(=O)c2ccc(Cc3cc(F)cc(F)c3)cn2)ccc1=O [Compound 311]
IV: O=C(Nc1ccc(C=C2CCOCC2)cn1)c1ccc(CO)nc1 [Compound 637]
Query: Which order do these items fall in when sorted by IC50 from largest to smallest? Please express your ranking as an ordered list of the labels.
Result: IV, II, I, III
(IV: 8100 nM, II: 740 nM, I: 19 nM, III: 10 nM)

---

Assay system: human SCD1 (Homo sapiens)
Construct: expressed in transfected cells; host or cells: yeast strain with OLE1 deleted, plasmid-borne human SCD1 (selected in SD-Ura)
Measurement notes: Growth inhibition of yeast strain expressing human SCD1 as sole desaturase (OLE1 deleted), OD600 readout
Assay type: cell-based
Applied conditions: yeast strain expressing human SCD1 as sole desaturase; growth (OD600) after 40 h at 30° C.; read-out: SCD1 IC50
Observed property: IC50 (µM)

Example cases with answers are listed next.
Compound: Cn1nc(C(=O)Nc2ccc(Cc3cc(F)c(F)c(C#N)c3)cn2)ccc1=O
IC50 (µM): 43
//
Compound: O=C(Nc1ccc(Cc2ccc(F)c(Cl)c2)cn1)c1ccc2nncn2c1
IC50 (µM): 0.01
//
Compound: Cn1nccc(C(=O)Nc2ccc(Cc3ccc(F)c(F)c3)cn2)c1=O
IC50 (µM): 0.24
//
Compound: O=C(Nc1ccc(Cc2cccc(F)c2)cn1)c1ccnc(C2CC2)n1
IC50 (µM): 1.5
//
Compound: Cn1nc(C(=O)Nc2ccc(Nc3cccc(Cl)c3)cn2)ccc1=O
IC50 (µM): 25.8

P: CN1N=C(C(=O)Nc2ncc(Cc3cc(F)ccc3F)s2)CCC1=O
Q: Cn1nc(C(=O)Nc2cnn(Cc3cccc(Cl)c3)c2)ccc1=O
R: Cn1cc(C(=O)Nc2ccc(Cc3cc(F)cc(Cl)c3)cn2)cn1
Query: // smallest IC50 at index 0, largest at the end Please express your ranking as an ordered list of the labels.
Result: R, Q, P

A: O=C(Nc1ccc(Cc2cccc(F)c2)cn1)c1cscn1
B: CN1N=C(C(=O)Nc2ncc(Cc3cccc(C(F)(F)F)c3)s2)CCC1=O
C: Cn1cc(NC(=O)N2CCC(Oc3cccc(Cl)c3)CC2)ccc1=O
Query: // smallest IC50 at index 0, largest at the end Please express your ranking as an ordered list of the labels.
Result: B, A, C

a: Cn1nc(NC(=O)c2ccc(Cc3ccc(F)c(F)c3)cn2)ccc1=O
b: COc1cc(Cc2ccc(NC(=O)c3ccc(=O)n(C)n3)nc2)ccc1F
Query: Decide: a or b , by lowest recorded IC50. # answer = label of selected item
Result: a
(a: 1.82 µM, b: 2.6 µM)

I: Cc1ccc(C(=O)Nc2ccc(Cc3cccc(Cl)c3)cn2)nn1
II: Cn1cc(C(=O)Nc2ccc(Cc3cccc(F)c3)cn2)cn1
III: N#Cc1ccc(C(=O)Nc2ccc(CNc3cccc(Cl)c3)cn2)cn1
IV: CN1N=C(C(=O)Nc2ccc(Cc3cccc(Cl)c3)nn2)CCC1=O
V: Cc1cc(C(=O)Nc2ccc(Cc3cccc(F)c3)cn2)nc(C)n1
Query: Rank order required: IC50, descending. Please express your ranking as an ordered list of the labels.
Result: III, IV, V, II, I

---

Assay system: human SCD5 (Homo sapiens, UniProt Q86SK9)
Construct: expressed in transfected cells; host or cells: yeast strain with OLE1 deleted, plasmid-borne human SCD5 (selected in SD-Ura)
Sequence (Q86SK9 1-330): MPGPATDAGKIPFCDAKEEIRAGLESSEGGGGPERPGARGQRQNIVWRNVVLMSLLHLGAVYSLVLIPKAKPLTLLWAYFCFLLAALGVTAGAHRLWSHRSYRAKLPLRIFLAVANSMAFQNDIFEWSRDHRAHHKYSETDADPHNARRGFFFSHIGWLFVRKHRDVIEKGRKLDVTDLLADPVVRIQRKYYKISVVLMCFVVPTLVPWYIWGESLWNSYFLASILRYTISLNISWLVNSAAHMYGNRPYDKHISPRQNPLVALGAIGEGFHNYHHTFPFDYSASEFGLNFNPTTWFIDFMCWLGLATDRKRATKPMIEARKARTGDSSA
Measurement notes: Growth inhibition of yeast strain expressing human SCD5 as sole desaturase (OLE1 deleted), OD600 readout
Format: cell-based
Applied conditions: yeast strain expressing human SCD5 as sole desaturase; growth (OD600) after 40 h at 30° C.; read-out: SCD5 IC50
Observed property: IC50 (nM)

Example cases with answers are listed next.
Entry smiles: CCn1cc(C(=O)Nc2ccc(COc3cccc(Cl)c3)cn2)ccc1=O
IC50 / nM: 8840
--
Entry smiles: Cn1cc(NC(=O)N2CCC(Oc3cccc(Cl)c3)CC2)ccc1=O
IC50 / nM: 6940
--
Entry smiles: CN1N=C(NC(=O)c2ccc(Cc3cccc(Cl)c3)cn2)CCC1=O
IC50 / nM: 70
--
Entry smiles: CN1N=C(C(=O)Nc2ncc(Cc3cccc(Cl)c3)s2)CCC1=O
IC50 / nM: 10
--
Entry smiles: Cn1nc(C(=O)Nc2nnc(Cc3cc(F)cc(Cl)c3)s2)ccc1=O
IC50 / nM: 550
--
Entry smiles: O=C(Nc1ccc(Cc2cccc(F)c2)cn1)c1cscn1
IC50 / nM: 270

I: Cn1cc(NC(=O)c2ccc(Cc3cccc(F)c3)cn2)ccc1=O
II: Cn1nc(C(=O)Nc2ccc(Oc3cc(F)cc(Cl)c3)cn2)ccc1=O
Query: Name the one with the greater IC50 value, either I or II as given. # answer = label of selected item
Result: II
(II: 1300 nM, I: 50 nM)

1: Cn1nc(C(=O)Nc2ccc(Cc3ccc(F)c(C(F)F)c3)cn2)ccc1=O
2: Cc1cc(C(=O)Nc2ccc(Cc3cc(F)cc(F)c3)cn2)cnc1Cl
Query: Decide: 1 or 2 , by lowest recorded IC50. # answer = label of selected item
Result: 1

---

Assay system: human SCD1 (Homo sapiens, UniProt O00767)
Construct: expressed in transfected cells; host or cells: yeast strain with OLE1 deleted, plasmid-borne human SCD1 (selected in SD-Ura)
Sequence (O00767 1-359): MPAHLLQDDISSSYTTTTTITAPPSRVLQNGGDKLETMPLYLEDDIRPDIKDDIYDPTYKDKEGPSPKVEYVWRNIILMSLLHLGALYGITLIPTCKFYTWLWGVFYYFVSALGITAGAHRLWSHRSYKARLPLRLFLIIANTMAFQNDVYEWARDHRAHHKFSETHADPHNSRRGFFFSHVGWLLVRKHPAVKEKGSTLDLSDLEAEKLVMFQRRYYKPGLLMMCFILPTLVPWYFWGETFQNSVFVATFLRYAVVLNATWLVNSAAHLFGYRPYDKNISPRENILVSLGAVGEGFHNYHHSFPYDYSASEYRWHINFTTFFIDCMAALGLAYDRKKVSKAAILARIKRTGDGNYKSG
Measurement notes: Growth inhibition of yeast strain expressing human SCD1 as sole desaturase (OLE1 deleted), OD600 readout
Format: cell-based
Applied conditions: yeast strain expressing human SCD1 as sole desaturase; growth (OD600) after 40 h at 30° C.; read-out: SCD1 IC50
pIC50: −log10 of the molar value.
Observed property: pIC50

a: Cn1cc(C(=O)Nc2nc(C#N)c(Cc3cccc(F)c3)s2)ccc1=O [Compound 353]
b: O=C(Nc1ccc(Cc2cccc(F)c2)cn1)c1ccnnc1 [Compound 143]
Query: Decide: a or b , by lowest recorded pIC50. # answer = label of selected item
Result: a

---

Assay system: human SCD5 (Homo sapiens)
Construct: expressed in transfected cells; host or cells: yeast strain with OLE1 deleted, plasmid-borne human SCD5 (selected in SD-Ura)
Measurement notes: Growth inhibition of yeast strain expressing human SCD5 as sole desaturase (OLE1 deleted), OD600 readout
Type: cell-based
Applied conditions: yeast strain expressing human SCD5 as sole desaturase; growth (OD600) after 40 h at 30° C.; read-out: SCD5 IC50
Observed property: IC50 (µM)

Compound: NCc1ccc(C(=O)Nc2ccc(Cc3cccc(Cl)c3)cn2)cn1 [Compound 121, 2,2,2-trifluoroacetate]
Assay system: human SCD5 (Homo sapiens)
Uom: µM
IC50: 0.02

Compound: CC(C)n1cc(C(=O)Nc2ccc(Oc3cccc(Cl)c3)cn2)ccc1=O
Assay system: human SCD5 (Homo sapiens)
Uom: µM
IC50: 9.36

Compound: O=C(Nc1ccc(Cc2cc(F)cc(F)c2)cn1)c1ccc2nncn2c1
Assay system: human SCD5 (Homo sapiens)
Uom: µM
IC50: 0.01

a: O=C(Nc1ccc(Cc2cccc(F)c2)cn1)c1cncc(CO)c1
b: O=C(Nc1ccc(Cc2ccc(F)c(F)c2)cn1)c1ncc(CO)cn1
c: N#Cc1ccc(C(=O)Nc2ccc(Cc3cccc(F)c3)cn2)cc1
d: CNC(=O)c1ccnc(NC(=O)c2ccc(Oc3ccccc3Cl)cn2)c1
Query: // smallest IC50 at index 0, largest at the end Please express your ranking as an ordered list of the labels.
Result: b, a, c, d
